biological target: Torsin-1A-interacting protein 1 (Homo sapiens); assay: LAP1 binders from COS7 cell lysate, primary screen, small-molecule microarray, 635/667 nm fluorescence (AID 1116); conditions: COS7-hLAP1 lysate binding, 635 nm fluorescence, higher = more signal
Quantity Measured: composite z-score

{"Molecular String": "CCCN1C(=O)[C@@]2(c3ccc([N+](=O)[O-])cc3)CC(=O)N(C3CCCCC3)[C@@H]2c2ccc(CO)cc21", "Val": -0.349}
{"Molecular String": "C=CCOC(=O)[C@H]1[C@@H]2C(=O)O[C@@H](c3ccccc3)[C@@H](c3ccccc3)N2[C@@H](c2ccc(OCCOC(=O)[C@H]3C[C@H]4C(=O)NCC(=O)N4[C@H]3c3cccc(OCCO)c3)cc2)[C@]12C(=O)Nc1ccc(I)cc12", "Val": 1.44}
{"Molecular String": "C=CCNC(=O)[C@H]1[C@@H]2C(=O)O[C@@H](c3ccccc3)[C@@H](c3ccccc3)N2[C@@H](c2ccc(O)cc2)[C@]12C(=O)Nc1ccccc12", "Val": 1.33}

----------
test system: Neuregulin-1 EGF-like domain; assay: binders of neuregulin-1 EGF-like domain, primary screen, biochemical, small-molecule microarray, 635 nm fluorescence (AID 1081); conditions: small-molecule microarray binding, higher = more signal;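 also: binding of the protein to compounds printed on small-molecule microarray slides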
Mark yes for reported composite z-score of 1 or greater; mark no for anything smaller.

{"Compound": "CCCC=C(CCC)[C@@H](NC(=O)c1ccc(C(=O)OC)cc1)c1ccc(C(=O)OC)cc1", "Assigned Label": "no"}
{"Compound": "COC(=O)C1=CC(c2ccc(CO)cc2)=CC(C2CC2)N(Cc2cc3c(cc2Br)OCO3)C=C1C(=O)OC (configuration not stated)", "Assigned Label": "yes"}
{"Compound": "COc1cccc(C)c1NC(=O)O[C@H]1[C@H](OC(=O)Nc2ccccc2-c2ccccc2)[C@@H](OC(=O)Nc2ccccc2-c2ccccc2)[C@@H](OC)O[C@@H]1CO", "Assigned Label": "yes"}
{"Compound": "O=C1NC(=O)C2C1C=CC(C(O)c1ccc(F)cc1)N2Nc1ccc(Cl)cc1Cl (configuration not stated)", "Assigned Label": "no"}
{"Compound": "COC(=O)[C@@]1(Cc2ccccc2)[C@H]2c3cc(C(=O)N(C)C)n(Cc4ccc(Cl)c(C(F)(F)F)c4)c3C[C@H]2CN1C(=O)c1ccccc1", "Assigned Label": "yes"}
{"Compound": "COc1cc(Cc2cc3c(c(CCc4ccccc4)n2)[Si](C(C)C)(C(C)C)O[C@H]3c2ccccc2)cc(OC)c1OC", "Assigned Label": "no"}

----------
Some compounds, each annotated with its measured z-score.
experiment: FRG1 promoter luciferase signal modulators, primary screen, FRG1 inhibition for FSHD, cell-based, C2C12 myotubes, firefly/Renilla luciferase, luminescence (AID 1084); conditions: higher = more signal, called active from +8 up or from −8 down

{"Compound": "N#Cc1ccc(NN2C(C(O)c3ccc(B(O)O)cc3)C=CC3CN(c4ccccc4)C(=O)C32)cc1 (stereo not drawn)", "z-score": 3.26}
{"Compound": "C[C@]12C(=O)N(CCO)[C@@H]3C(=O)N(c4ccc(Cl)cc4)CC=CC31O[C@@H]1/C=C\\CCCOC(=O)C12 (stereo partly drawn)", "z-score": 0.868}
{"Compound": "C=CCNC(=O)[C@H]1[C@@H]2C(=O)O[C@@H](c3ccccc3)[C@@H](c3ccccc3)N2[C@@H](c2ccc(O)cc2)[C@]12C(=O)Nc1ccccc12", "z-score": -2.15}
{"Compound": "CCCCC(=C=CC[C@H](O)c1ccccc1OCCO)CCO", "z-score": 0.125}
{"Compound": "CC(C)c1ccc(NN2C(C(O)C(C)c3ccccc3)C=CC3C(=O)N(c4ccccc4)C(=O)C32)cc1 (stereo not drawn)", "z-score": -0.632}
{"Compound": "C[C@]1(C(=O)NCC(F)(F)F)c2ccccc2C(=O)N(Cc2cc(C(F)(F)F)cc(C(F)(F)F)c2)[C@H]1c1ccc(CO)cc1", "z-score": 0.549}
{"Compound": "CC[C@@H](O[Si](C#C[Si](C(C)C)(C(C)C)C(C)C)(C(C)C)C(C)C)c1cn([C@H](CO)Cc2ccccc2)nn1", "z-score": 0.355}
{"Compound": "C=C[C@H](C)[C@@H](OC(=O)Nc1ccc(SC)cc1)c1ccc(OCCO)cc1", "z-score": 5.34}

Reference source: PubChem BioAssay
